- subject_of_test: human GPR119 (Homo sapiens)
- Sequence (Q8TDV5 whole entry): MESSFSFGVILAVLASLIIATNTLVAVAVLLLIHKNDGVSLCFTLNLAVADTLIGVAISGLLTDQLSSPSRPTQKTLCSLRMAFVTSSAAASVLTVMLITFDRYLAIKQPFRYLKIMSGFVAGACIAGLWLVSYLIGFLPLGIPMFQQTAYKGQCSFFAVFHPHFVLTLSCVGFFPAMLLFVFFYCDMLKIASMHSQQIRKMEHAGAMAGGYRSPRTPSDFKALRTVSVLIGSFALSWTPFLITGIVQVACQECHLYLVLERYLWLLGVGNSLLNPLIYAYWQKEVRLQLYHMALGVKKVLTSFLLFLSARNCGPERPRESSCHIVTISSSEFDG
- procedure_summary: Human GPR119 activity assay (cAMP HTRF in 293 T-REx cells expressing hGPR119)
- condition: 293 T-REx cells expressing hGPR119, cAMP HTRF, 1 h incubation; read-out: EC50 (agonist concentration that gives 50% activation of the hGPR119 mediated cAMP increase)
- Protocol: A stable cell line expressing human GPR119 off an inducible promoter is generated in 293 T-REx™ cells (Invitrogen). T-REx™ (Tetracycline-Regulated Expression) cell line stably expresses the tetracycline repressor protein and, therefore, allow for inducible expression of the gene of interest (GPR119) with doxycycline. […] Incubation is stopped by addition of HTRF reagents diluted in the lysis buffer, followed by incubation for 1 h and measurements of fluorescence at 620 and 655 nm. […]
pEC50: −log10 of the molar value.
This listing pairs compounds with measured pEC50.

- compound: "CC(C)(F)CN1CCC(COc2ccc(C3=CCN(S(C)(=O)=O)CC3)cc2F)CC1"
  subject_of_test: "human GPR119 (Homo sapiens)"
  pEC50: 8.67
- compound: "CS(=O)(=O)N1CC=C(c2ccc(OCC3CCN(CC4(F)CCCC4)CC3)cc2)CC1"
  subject_of_test: "human GPR119 (Homo sapiens)"
  pEC50: 8.34
- compound: "CC(Oc1ccc(C2=CCN(S(C)(=O)=O)CC2)cc1)C1CCN(CC(C)(C)F)CC1 (single isomer, unassigned)"
  subject_of_test: "human GPR119 (Homo sapiens)"
  pEC50: 8.96
- compound: "CC(C)(F)CN1CCC(COc2ccc(C3=CCN(S(C)(=O)=O)CC3)nc2)CC1"
  subject_of_test: "human GPR119 (Homo sapiens)"
  pEC50: 9.02
- compound: "CS(=O)(=O)N1CC=C(c2ccc(OCC3CCN(CC4(C(F)(F)F)CC4)CC3)cc2)CC1"
  subject_of_test: "human GPR119 (Homo sapiens)"
  pEC50: 9.02
